Ref: PubChem BioAssay (NCI)

- experimentSummary: NCI Yeast Anticancer Drug Screen. Data for the rad50 strain (AID 155);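 further: 0% = growth of vehicle-only cultures of the same strain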
- experimentalParameters: S. cerevisiae rad50 strain growth inhibition; at 5.0 µM (retest, dose inferred, filed as 0.5); stronger effect = higher value
This is part of a sample that, as a whole, favours compounds with a hit. Of some 79,000 tested, about 15% had one in any assay.
metric: growth inhibition (%)
// note: answer is a bare numeric in %

[[record]]
compound = "CC(C)(C)c1ccc(Sc2ncnc3ccccc23)cc1"
datavalue = 4

[[record]]
compound = "COc1cc2c(c(C3C(=O)N(C)c4ccc(Br)cc43)c1OC)OCO2 (configuration not stated)"
datavalue = 3

[[record]]
compound = "O=C1C(c2ccc([N+](=O)[O-])cc2)=C(Cl)C(=O)c2c(O)cccc21"
datavalue = -30

[[record]]
compound = "C=Cc1nc(N)nc(-c2ccc(C)cc2)n1"
datavalue = 7

[[record]]
compound = "S=C(Nc1cc(Cl)cc(Cl)c1)SCc1ccccc1"
datavalue = 33

[[record]]
compound = "O=C(O)c1ccc(Br)cc1C(=O)c1ccccc1"
datavalue = -18


Input: Which growth inhibition is reported for this compound? Cn1c(=O)cc2c3c(ccc(C(=O)O)c31)C(=O)c1ccccc1-2
Output: 40

Input: Can you look up the measured growth inhibition of COc1cccc(N2CCN(CC(O)COc3cc4c(c5c3CCCC5)CCCC4)CC2)c1 (configuration not stated) for me?
Output: 17

Input: Dear colleague, I am looking for the recorded growth inhibition of the following compound: O=S1(=O)CC=C1c1ccccc1
Output: 8

Input: Form field: reported growth inhibition of O=C(Nc1cccc(Cl)c1)Oc1c(Br)cc(Br)cc1Br
Output: 18

Input: // growth inhibition lookup, key: NC(=O)c1ccccc1OC(=O)NCCO
Output: 6

Input: Record request: growth inhibition value, item COC(=O)c1ccccc1CC1Cc2cccc(C)c2C1=O (configuration not stated)
Output: -2

###

- experimentSummary: NCI Yeast Anticancer Drug Screen. Data for the bub3 strain (AID 167)
- experimentalParameters: S. cerevisiae bub3 mutant strain, at 50.0 µM, stronger effect = higher value
The panel holds about 79,000 compounds, 15% with a hit somewhere; the sample as a whole holds those more often.
metric: growth inhibition (%)
Your answer is read as %, so omit the unit and give the number.

[[record]]
compound = "Cc1ccccc1NC(=S)N/N=C(/c1ccccc1)c1ccccn1"
metric = "growth inhibition"
datavalue = 76.3


Input: # lookup: growth inhibition of CC(=O)OCc1cc2c(s1)C(=O)c1sccc1C2=O
Output: 88.7

Input: Endpoint output: growth inhibition of Cc1occc1C(=S)Nc1ccc(Cl)c(COC(C)(C)C)c1 . Value?
Output: 86.2

Input: Report growth inhibition for O=C(Cc1ccccc1)NNc1nc(NNC(=O)c2ccncc2)nc(Nc2ccccc2)n1 please.
Output: 36.6

Input: What value of growth inhibition has been reported for the following compound? CN(C)C1C=CCC(c2ccccc2)C1[N+](=O)[O-] (stereo unspecified)
Output: 92.5

Input: What value of measured growth inhibition is listed for CCOC(=O)CNC(=O)CNC(=O)CNC(c1ccccc1)(c1ccccc1)c1ccccc1 ?
Output: 38.4

###

- experimentSummary: NCI Yeast Anticancer Drug Screen. Data for the rad50 strain (AID 155);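 further: 0% = growth of vehicle-only cultures of the same strain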
- experimentalParameters: S. cerevisiae rad50 strain growth inhibition; at 50.0 µM
The panel holds about 79,000 compounds, 15% with a hit somewhere; the sample as a whole holds those more often. Activity calls are given as the source filed them. No stated cut-off is given here; in the data, active means growth inhibition above about 70%; inactive means the rest.
Response enum: active, inactive

[[record]]
molecule = "CC1CN(C(=S)NNC(C)c2cc3ccccc3cn2)CC(C)O1 (stereo unspecified)"
categorylabel = "active"

[[record]]
molecule = "O=c1c2ccccc2nc(-c2ccccc2)n1NC(=S)Nc1ccc(Cl)cc1[N+](=O)[O-]"
categorylabel = "inactive"

[[record]]
molecule = "O=S(=O)(c1ccccc1)n1cc(C[P+](c2ccccc2)(c2ccccc2)c2ccccc2)c2ccccc21"
categorylabel = "active"

[[record]]
molecule = "Cc1cc(=O)oc2c3c(ccc12)OC(c1ccc(Br)cc1)CC3=O (stereo unspecified)"
categorylabel = "inactive"

[[record]]
molecule = "O=C(Nc1nnc(-c2ccccc2)s1)c1cc(=O)c2cc(Cl)ccc2o1"
categorylabel = "active"

[[record]]
molecule = "CC(C)(C)c1cc2c(c(C(C)(C)C)c1O)CC(=O)O2"
categorylabel = "inactive"

[[record]]
molecule = "OC(c1ccccc1)c1cccc2ccccc12 (stereo unspecified)"
categorylabel = "active"

[[record]]
molecule = "Cc1cc(O)c(/C=N/C(=S)Nc2ccc(S(N)(=O)=O)cc2)c(=O)o1"
categorylabel = "inactive"


Input: Hi, do you know how CCC1CCCN1CCOC(=O)C(c1ccccc1)C1C=CCC1 (stereo unspecified) came out in this test?
Output: inactive

Input: Assay outcome for Cc1ccc(C(c2ccc(N(C)C)cc2)c2ccc(N(C)C)cc2)cc1 : what was it?
Output: active

Input: Status in this test for CC(C)S(=O)(=O)ON1C(=O)c2ccc(N(C)C)cc2C1=O ?
Output: active

###

# growth inhibition per entry
- experimentSummary: NCI Yeast Anticancer Drug Screen. Data for the cln2 rad14 strain (AID 165);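 further: 0% = growth equal to vehicle treated cultures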
- experimentalParameters: S. cerevisiae cln2 rad14 strain, at 5.0 µM (retest, dose inferred, filed as 0.5), stronger effect = higher value
About 79,000 compounds went through this panel and 15% of them were active in at least one assay; those are over-represented in the sample as a whole.
Answer format: numeric, % implied, no suffix.

Answered cases to consult:
[[record]]
molecule = "N#C/C(=C/c1cc(I)cc(I)c1O)C(N)=O"
datavalue = 41

[[record]]
molecule = "Cc1c(N=Nc2ccc(Br)cc2)c(-c2ccccc2)nn1C(=S)S"
datavalue = 4

[[record]]
molecule = "O=C(O)/C(=C/c1ccccc1)c1ccc2ccccc2c1Br"
datavalue = -18


Input: Using the record for C[C@H](CCC(=O)O)[C@H]1CC[C@H]2[C@@H]3CC[C@@H]4C[C@H](O)CC[C@]4(C)[C@H]3C[C@H](O)[C@]12C , report its growth inhibition.
Output: -34

Input: growth inhibition for Cc1ccc(NC(=O)CCc2nnc(N)n2N)cc1 ?
Output: 0

Input: For CC(Br)C(=O)c1ccc2cc(Cl)c3ccccc3c2c1 (stereo not given) , what is its reported growth inhibition?
Output: -4

Input: What growth inhibition value was documented for this molecule, CCOc1ccccc1NC1=C(Cl)C(=O)c2ccccc2C1=O ?
Output: 99

Input: Param item = O=C(c1ccc(Cl)cc1)C1N=NCC1c1ccccc1 (stereo not given) ; retrieve measured growth inhibition.
Output: 4

Input: Request the reported growth inhibition associated with Clc1ccc(C2NC(c3ccccc3)c3c(ccc4ccccc34)O2)cc1 (stereo not given)
Output: 1

Input: What value of measured growth inhibition is listed for c1ccc(-c2c[nH]c(-c3ccccc3)c2-c2ccccc2)cc1 ?
Output: -4

Input: I have this molecule here, ON(Cc1ccccc1)C(=S)c1ccccc1 , and I need its recorded growth inhibition.
Output: 1

Input: Any idea what growth inhibition was measured for CCCCN(CCCC)CC(O)c1cccc2c(Cl)cccc12 (stereo not given) ?
Output: 8

Input: Bench note: what growth inhibition did CCCCCCCCCCCCOC(=O)CC1CC(C(C)=O)C1(C)C (stereo not given) show?
Output: 1

Input: Requested field: growth inhibition. Item: NC(C(=O)O)C1=CCCCCC1 (stereo not given)
Output: 12

Input: Name the recorded growth inhibition for COc1ccc2c(c1)CCC(N1CCCC(O)C1)C2 (stereo not given) .
Output: 25

Input: Recorded growth inhibition for O=C1/C(=C/c2ccccc2Cl)COc2ccccc21 , please?
Output: 20

Input: Query: growth inhibition; subject: O=C1OC2(CCN(Cc3ccccc3)CC2)C(=O)N1c1cccc(Cl)c1
Output: 60

Input: Can you share its growth inhibition? I mean this molecule: O=C1C=C(c2ccccc2)O/C1=C/C(=O)c1ccc(Cl)cc1
Output: 11

Input: Any idea what its growth inhibition is? The molecule is CN(C)C(=O)Nc1ccc(Cc2ccc(NC(=O)N(C)C)cc2)cc1
Output: 5

Input: Please look up its growth inhibition: CCCCCCCC(CC(=O)O)OC(=O)CC(CCCCCCC)OC1OC(C)C(O)C(O)C1OC1OC(C)C(O)C(O)C1O (stereo not given)
Output: -42

Input: Query: growth inhibition; subject: COc1ccc(N=N/N=c2\sc3cc(Cl)ccc3n2C)cc1
Output: 28

Input: Fill in the blank: the reported growth inhibition of Nc1ccc(O)c2ccccc12 is ____.
Output: -10

###

- experimentSummary: NCI Yeast Anticancer Drug Screen. Data for the rad50 strain (AID 155);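 further: 0% = growth of vehicle-only cultures of the same strain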
- experimentalParameters: S. cerevisiae rad50 strain growth inhibition; at 50.0 µM
About 79,000 compounds went through this panel and 15% of them were active in at least one assay; those are over-represented in the sample as a whole. Calls of active or inactive are those of the source. No stated cut-off is given here; in the data, active means growth inhibition above about 70%; inactive means the rest.
// classify into True for active, False for inactive

Completed entries (count: 6):
[[record]]
molecule = "CC#CCCCCOC(=O)c1cc([N+](=O)[O-])cc([N+](=O)[O-])c1"
categorylabel = "True"

[[record]]
molecule = "CC[C@]1(O)C[C@H]2[C@@H]3CCc4cc(OC)ccc4[C@H]3CC[C@]2(C)[C@H]1O"
categorylabel = "False"

[[record]]
molecule = "N#Cc1ccccc1NC1OCC(O)C(O)C1O (stereo not given)"
categorylabel = "False"

[[record]]
molecule = "CN(C)C(=O)/N=c1\\ss/c(=N\\C(=S)N(C)C)n1-c1ccccc1"
categorylabel = "False"

[[record]]
molecule = "COC(=O)C1=C(C)NC(C)=C(C(=O)OC)C1c1ccc(NCc2ccccc2)c([N+](=O)[O-])c1"
categorylabel = "False"

[[record]]
molecule = "N#CCCN(CCC#N)Cc1c(O)c(O)c(CN(CCC#N)CCC#N)c2ccccc12"
categorylabel = "False"


Input: Give the logged outcome of this assay for the following molecule: O=c1cccccc1[O-].O=c1cccccc1[O-].O=c1cccccc1[O-].[Ce+3]
Output: True

Input: For COc1cccc(N2CCN(CC(O)COc3cc4c(c5c3CCCC5)CCCC4)CC2)c1 (stereo not given) , what call appears in the results of this test?
Output: False

Input: Recorded call for CCN1C2=NC(=O)N(C)C(=O)C2(Cl)C(C(SC)S(=O)(=O)c2ccc(C)cc2)c2ccccc21 (stereo not given) ?
Output: True

Input: Recorded test outcome, item Cc1cc(C)c2c(c1)sc1nncn12
Output: True
